Answer each item with its documented TGI.
Tested on: LOX IMVI melanoma
ASSAY_EXPLANATION: NCI tumour cell line growth inhibition, 48 h

Take a look at these entries with their results.
| COMPOUND | RESULT |
| --- | --- |
| S=c1sc2c(n1-c1ccccc1)NC=NC2S (stereo unspecified) | > 100 µM |
| CC(=O)/C=C/C1=C(C)CCCC1(C)CC(C)C (stereo unspecified) | 39.9 µM |
| CCCCOC(=O)Nc1ccc(S(=O)(=O)Nc2ccccc2Cl)cc1 | 34.7 µM |
| N#C/C(=C\c1cccc(Cl)c1Cl)c1ccccc1 | > 100 µM |
| Cn1ccc2c3c(Oc4ccc(NC(N)=O)cc4)ccnc3ccc21 | > 100 µM |
| Oc1ccc(Cc2cc(Cc3ccc(O)cc3)cc(Cc3ccc(O)cc3)c2)cc1 | > 50 µM |
| c1ccc2c(c1)Cn1c-2nc2ccccc21 | > 100 µM |
| Cc1cccc(Cn2c3c(c4cc(O)ccc42)C(=O)c2ccccc2C3=O)c1 | > 100 µM |
| O=C(/C=C/c1ccc([N+](=O)[O-])cc1)c1ccc(NCc2nc3ccccc3[nH]2)cc1 | 6.54 µM |
| Cc1cc(Nc2ccc(S(=O)(=O)O)c3cc(S(=O)(=O)O)cc(S(=O)(=O)O)c23)c2ccccc2n1 | > 100 µM |

Query: GET /values?readout=TGI&item= O=C1NC(=NC(CO)Cc2ccccc2)S/C1=C\c1ccc2ncccc2c1 (stereo unspecified)
Response: > 25 µM
